Origin of values: ChEMBL document CHEMBL1136017

Observed pKi for Human immunodeficiency virus type 1 protease (Human immunodeficiency virus 1), reported per entry below.
Schema: pKi number; meaning minus log10 of the concentration expressed in molar units.

Lab request: please report pKi under test system Human immunodeficiency virus type 1 protease (Human immunodeficiency virus 1) for Cc1ccc(C(=O)Nc2cccc(CN3C(=O)N(Cc4cccc(NC(=O)c5ccc(C)cn5)c4)[C@H](Cc4ccccc4)[C@H](O)[C@H]3CCc3ccccc3)c2)nc1 10.10

Another molecule: Nc1cccc(CN2C(=O)N[C@H](Cc3ccccc3)[C@H](O)[C@H]2CCc2ccccc2)c1 8.21

Another molecule: N/C(=N\O)c1cccc(CN2C(=O)N[C@H](CCc3ccccc3)[C@@H](O)[C@H]2Cc2ccccc2)c1 9.62

Another molecule: Nc1cccc(CN2C(=O)N[C@H](CCc3ccccc3)[C@@H](O)[C@H]2Cc2ccccc2)c1 6.80

Another molecule: O=C(Nc1cccc(CN2C(=O)N(Cc3cccc(NC(=O)c4nccs4)c3)[C@H](Cc3ccccc3)[C@H](O)[C@H]2CCc2ccccc2)c1)c1nccs1 10.52
